Data credit: paper doi:10.1101/2023.10.24.563163v2

System: NCI-H358
TEST_SUMMARY: cells
Design: Inhibition of cell proliferation, 5 days
MEASUREMENT_CONDITIONS: Homo sapiens, NCI-H358, 120 h; read-out: IC50 Proliferation NCI-H358
MEASURED_ENDPOINT: pIC50
Answers are plain numbers, as −log10 of the molar value.

Sample answers from the record:
C[C@H](Oc1ccnc(-c2noc([C@@]3(C)CCCc4sc(N)c(C#N)c43)n2)n1)[C@@H]1CCCN1C    6.21
C=CC(=O)N1CCN(c2nc(=O)n(-c3c(C)ccnc3C(C)C)c3nc(-c4c(O)cccc4F)c(F)cc23)[C@@H](C)C1    7.91

// batch mode: one pIC50 value per listed entry
1. Cc1ncsc1-c1ccc(CNC(=O)[C@@H]2C[C@@H](O)CN2C(=O)[C@@H](NC(=O)CCCCCN2CCCN(c3nccc(-c4noc([C@@]5(C)CCCc6sc(N)c(C#N)c65)n4)n3)[C@@H](C)C2)C(C)(C)C)cc1
2. Cc1ncsc1-c1ccc(CNC(=O)[C@@H]2C[C@@H](O)CN2C(=O)[C@@H](c2cc(OCCCCN3CCCN(c4nccc(-c5noc([C@@]6(C)CCCc7sc(N)c(C#N)c76)n5)n4)[C@@H](C)C3)no2)C(C)C)cc1

[6.01, 7.07]
